# experiment: Study 1 Part 1: ascending single-dose PK in healthy men
# Format: in vivo, human
# settings: male, human, plasma, oral, 15 mg, 15 mg single dose, N = 6, read-out: Vss/F, Mean (SD)
measurementName: Vd/F

Vd/F for CC(C)(NC(=O)O[C@@H]1CN2CCC1CC2)c1csc(-c2ccc(F)cc2)n1 ? 245 L

---

# experiment: Study 1 Part 1: ascending single-dose PK in healthy men
# Type: in vivo, human
# settings: male, human, plasma, oral, 150 mg single dose, N = 5, read-out: tmax, median
measurementName: Tmax (h)
Give the quantity in h, number only.

Tell me the measured Tmax of CC(C)(NC(=O)O[C@@H]1CN2CCC1CC2)c1csc(-c2ccc(F)cc2)n1 [Compound 2] , please. 4

---

# experiment: Study 1 Part 1: ascending single-dose PK in healthy men
# Assay type: in vivo, human
# settings: male, human, plasma, oral, 2 mg, 2 mg single dose, N = 6, read-out: AUCinf, Mean (SD)
measurementName: AUC(0-inf) (ng·h/mL)
Give just the numeric value; ng·h/mL need not be written.

# get_value(readout='AUC(0-inf)', item= CC(C)(NC(=O)O[C@@H]1CN2CCC1CC2)c1csc(-c2ccc(F)cc2)n1 [Compound 2] ) 243

---

# experiment: Study 1 Part 1: ascending single-dose PK in healthy men
# Type: in vivo, human
# settings: male, human, plasma, oral, 15 mg, 15 mg single dose, N = 6, read-out: t1/2, Mean (SD) (converted)
measurementName: half-life (h)
Form entry: value (h) — number only.

Can you share its half-life? I mean this molecule: CC(C)(NC(=O)O[C@@H]1CN2CCC1CC2)c1csc(-c2ccc(F)cc2)n1 [Compound 2] 29.7

---

# experiment: Study 1 Part 1: ascending single-dose PK in healthy men
# Assay type: in vivo, human
# settings: male, human, plasma, oral, 5 mg, 5 mg single dose, N = 6, read-out: Vss/F, Mean (SD)
measurementName: Vd/F (L)
Could you give me the number in L? Just the number is fine.

Vd/F for CC(C)(NC(=O)O[C@@H]1CN2CCC1CC2)c1csc(-c2ccc(F)cc2)n1 ? 274

---

# experiment: Study 1 Part 1: ascending single-dose PK in healthy men
# Assay type: in vivo, human
# settings: male, human, plasma, oral, 150 mg, 150 mg single dose, N = 5, read-out: AUClast, Geometric mean (CV)
measurementName: AUC(0-t)
Give me the value, and tack the unit on after it.

Consider the molecule CC(C)(NC(=O)O[C@@H]1CN2CCC1CC2)c1csc(-c2ccc(F)cc2)n1 and give its measured AUC(0-t). 18000 ng·h/mL

---

# experiment: Study 1 Part 1: ascending single-dose PK in healthy men
# Format: in vivo, human
# settings: male, human, plasma, oral, 50 mg, 50 mg single dose, N = 6, read-out: Vss/F, Mean (SD)
measurementName: Vd/F (L)
Provide the reading as a plain figure in L.

# Vd/F lookup, item CC(C)(NC(=O)O[C@@H]1CN2CCC1CC2)c1csc(-c2ccc(F)cc2)n1 239

---

# experiment: Study 1 Part 1: ascending single-dose PK in healthy men
# Format: in vivo, human
# settings: male, human, plasma, oral, 5 mg, 5 mg single dose, N = 6, read-out: AUCinf, Mean (SD)
measurementName: AUC(0-inf)
Report as: number unit

What AUC(0-inf) value was documented for this molecule, CC(C)(NC(=O)O[C@@H]1CN2CCC1CC2)c1csc(-c2ccc(F)cc2)n1 ? 652 ng·h/mL

---

# experiment: Study 1 Part 1: ascending single-dose PK in healthy men
# Format: in vivo, human
# settings: male, human, plasma, oral, 150 mg, 150 mg single dose, N = 5, read-out: AUCinf, Mean (SD)
measurementName: AUC(0-inf) (ng·h/mL)
Your answer is read as ng·h/mL, so omit the unit and give the number.

Endpoint output: AUC(0-inf) of CC(C)(NC(=O)O[C@@H]1CN2CCC1CC2)c1csc(-c2ccc(F)cc2)n1 . Value? 20600

---

# experiment: Study 1 Part 1: ascending single-dose PK in healthy men
# Format: in vivo, human
# settings: male, human, plasma, oral, 25 mg, 25 mg single dose, N = 6, read-out: AUCinf, Mean (SD)
measurementName: AUC(0-inf) (ng·h/mL)
The reply should be a number in ng·h/mL, with the unit left off.

Given the entry CC(C)(NC(=O)O[C@@H]1CN2CCC1CC2)c1csc(-c2ccc(F)cc2)n1 , report its measured AUC(0-inf). 3810

---

# experiment: Study 2: ascending repeated-dose PK in healthy adults
# Assay type: in vivo, human
# settings: both sexes, human, plasma, oral, 5 mg, Day 14, 5 mg once daily, N = 9; read-out: t1/2, Mean (converted)
measurementName: half-life (h)
Value expressed in h; do not type the unit.

Can you look up the measured half-life of CC(C)(NC(=O)O[C@@H]1CN2CCC1CC2)c1csc(-c2ccc(F)cc2)n1 for me? 29.3

---

# experiment: Study 1 Part 1: ascending single-dose PK in healthy men
# Format: in vivo, human
# settings: male, human, plasma, oral, 25 mg, 25 mg single dose, N = 6, read-out: t1/2, Mean (SD) (converted)
measurementName: half-life (h)
Express your answer in h, writing the number without its unit.

# half-life lookup, item CC(C)(NC(=O)O[C@@H]1CN2CCC1CC2)c1csc(-c2ccc(F)cc2)n1 30.2

---

# experiment: Study 1 Part 1: ascending single-dose PK in healthy men
# Assay type: in vivo, human
# settings: male, human, plasma, oral, 150 mg, 150 mg single dose, N = 5, read-out: Vss/F, Geometric mean (CV)
measurementName: Vd/F (L)
Express it in L; write the number only.

Look up Vd/F: CC(C)(NC(=O)O[C@@H]1CN2CCC1CC2)c1csc(-c2ccc(F)cc2)n1 223

---

# experiment: Study 1 Part 1: ascending single-dose PK in healthy men
# Type: in vivo, human
# settings: male, human, plasma, oral, 150 mg, 150 mg single dose, N = 5, read-out: Cmax, Mean (SD)
measurementName: Cmax
Returns: string containing the number followed by the unit.

Cmax lookup needed for CC(C)(NC(=O)O[C@@H]1CN2CCC1CC2)c1csc(-c2ccc(F)cc2)n1 [Compound 2] , thanks. 529 ng/mL

---

# experiment: Study 2: ascending repeated-dose PK in healthy adults
# Format: in vivo, human
# settings: both sexes, human, plasma, oral, 10 mg, Day 14, 10 mg once daily, N = 9; read-out: t1/2, Geometric mean (converted)
measurementName: half-life (h)
The reply should be a number in h, with the unit left off.

Quick one: half-life of CC(C)(NC(=O)O[C@@H]1CN2CCC1CC2)c1csc(-c2ccc(F)cc2)n1 ? 31.2

---

# experiment: Study 1 Part 1: ascending single-dose PK in healthy men
# Type: in vivo, human
# settings: male, human, plasma, oral, 150 mg, 150 mg single dose, N = 5, read-out: Vss/F, Mean (SD)
measurementName: Vd/F (L)
Write it as a number; the unit L goes unstated.

Which Vd/F is reported for this molecule? CC(C)(NC(=O)O[C@@H]1CN2CCC1CC2)c1csc(-c2ccc(F)cc2)n1 228

---

glucosylceramide synthase (Homo sapiens (Human), UniProt Q16739) IC50 data
Sequence (Q16739 whole entry): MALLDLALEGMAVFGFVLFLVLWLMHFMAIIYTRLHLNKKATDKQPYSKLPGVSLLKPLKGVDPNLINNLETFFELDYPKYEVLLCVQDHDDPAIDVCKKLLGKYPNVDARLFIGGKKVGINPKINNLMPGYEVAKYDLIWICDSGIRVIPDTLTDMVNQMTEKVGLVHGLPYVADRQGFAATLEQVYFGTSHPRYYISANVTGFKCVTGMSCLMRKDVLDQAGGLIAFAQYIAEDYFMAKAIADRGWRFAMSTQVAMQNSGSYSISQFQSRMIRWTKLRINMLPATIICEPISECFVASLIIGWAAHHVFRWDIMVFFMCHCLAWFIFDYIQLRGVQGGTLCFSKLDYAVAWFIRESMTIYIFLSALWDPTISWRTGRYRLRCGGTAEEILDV
Give me the value, and tack the unit on after it.

Examples with their reported IC50 follow.
COCCOc1ccc(-c2nc(C(C)(C)NC(=O)OC3CN4CCC3CC4)cs2)cc1 (centres unmarked) [Compound 20]
360 µM
CC(C)(NC(=O)OC1CN2CCC1CC2)c1csc(-c2ccc(F)cc2)c1 (centres unmarked) [Compound 10]
6.4 µM
CC(C)(NC(=O)OC1CN2CCC1CC2)c1ccc(-c2ccc(CO)cc2)cc1 (centres unmarked) [Compound 17]
454 µM
COCCOc1ccc(-c2ccc(C(C)(C)NC(=O)OC3CN4CCC3CC4)cc2)cc1 (centres unmarked) [Compound 13]
3.5 µM
COCCCOc1ccc(-c2ccc(C(C)(C)NC(=O)OC3CN4CCC3CC4)cc2)cc1 (centres unmarked) [Compound 16]
2.4 µM

# input molecule: O=C(NC1(c2ccc(-c3ccc(F)cc3)cc2)CC1)O[C@@H]1CN2CCC1CC2 [Compound 7] ; wanted: its IC50 1.4 µM

Same for COCCCOc1ccc(-c2nc(C(C)(C)NC(=O)OC3CN4CCC3CC4)cs2)cc1 (centres unmarked) [Compound 19] 170 µM

Same for CC(C)(NC(=O)OC1CN2CCC1CC2)c1cccc(-c2ccccc2)c1 (centres unmarked) [Compound 4] 1.5 µM

---

# experiment: Study 1 Part 1: ascending single-dose PK in healthy men
# Type: in vivo, human
# settings: male, human, plasma, oral, 25 mg, 25 mg single dose, N = 6, read-out: Cmax, Mean (SD)
measurementName: Cmax (ng/mL)
Report the value in ng/mL with no unit label.

Which Cmax value is on record for CC(C)(NC(=O)O[C@@H]1CN2CCC1CC2)c1csc(-c2ccc(F)cc2)n1 ? 84.4

Source: patent US12083115B2
